Documented self-cleavage across a set of variants
B1: HDV Ribozyme (parent)
chain: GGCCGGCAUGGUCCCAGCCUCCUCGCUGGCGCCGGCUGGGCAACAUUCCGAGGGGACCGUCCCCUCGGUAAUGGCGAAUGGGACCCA

variants of: B1; test: self-cleavage, relative activity (ratio to wild type); higher = more cleavage; co-transcriptional

C13U A87G | 0.634
G80A A87U | 0.441
U12C C32G | 0
C64G A83U | 0.508
G67A U79C | 0.509

Query: So what's the measured self-cleavage for this one? C13A C66U
Reply: 0.125

Query: So what's the measured self-cleavage for this one? G31U G54A
Reply: 0.403

Query: So what's the measured self-cleavage for this one? A43U A51G
Reply: 0.911

Query: So what's the measured self-cleavage for this one? G40C G68A
Reply: 0.201

Query: So what's the measured self-cleavage for this one? G11C C58U
Reply: 0.242

Query: So what's the measured self-cleavage for this one? G50U A78G
Reply: 0.776

Query: So what's the measured self-cleavage for this one? G5A G29U
Reply: 0.0519

Query: So what's the measured self-cleavage for this one? G54A G55A
Reply: 1.29

Query: So what's the measured self-cleavage for this one? C24A G80C
Reply: 0.262

Query: So what's the measured self-cleavage for this one? G67U G73A
Reply: 0.451

Query: So what's the measured self-cleavage for this one? C26A U65A
Reply: 0.966

Query: So what's the measured self-cleavage for this one? G50A A51U
Reply: 0.763

Query: So what's the measured self-cleavage for this one? G50C G53C
Reply: 0.18

Query: So what's the measured self-cleavage for this one? C24G U60G
Reply: 0.0755

Query: So what's the measured self-cleavage for this one? C4U C13U
Reply: 0.516

Query: So what's the measured self-cleavage for this one? G6C A87G
Reply: 0.288

Query: So what's the measured self-cleavage for this one? C19A C44U
Reply: 0.0191

Origin of the recorded values: the RNAGym collection of RNA variant scans (doi:10.7554/elife.80360)
